Source of measurements: patent US20250326755A1

# Tested on: sciatic nerve of the rat
# Type: in vivo, SD rats
# testParameters: rat, in vivo
measuredEndpoint: Duration/h

// below: answered molecules
molecule	Duration/h
CCCC[N+]1(CCCCNc2ccccc2)CCCC[C@H]1C(=O)Nc1c(C)cccc1C (some centres unmarked)	24 to 48 h
CCCC[N+]1(CCOCCOc2ccccc2)CCCC[C@H]1C(=O)Nc1c(C)cccc1C (some centres unmarked) [Comparative Example 1, reference compound]	1 (the rat died 4 h
CCCC[N+]1(CCCCOc2cccc(C)c2)CCCC[C@H]1C(=O)Nc1ccccc1C (some centres unmarked)	2 to 24 h
CCCC[N+]1(CCCCOc2ccccc2)CCCC[C@H]1C(=O)Nc1ccc(F)cc1 (some centres unmarked)	72 to 96 h
CCCC[N+]1(CCCCCNc2ccccc2)CCCC[C@H]1C(=O)Nc1c(C)cccc1C (some centres unmarked)	24 to 48 h

Note: attention shifts to another entry.
Q: Look up Duration/h: Cc1cccc(C)c1NC(=O)[C@@H]1CCCC[N+]1(CCCCOc1ccccc1)CC(C)C (some centres unmarked)
Ans: 2 to 18 h
